// reported Kd per item
Molecular target: T1, EsCas13d, nuclease-dead (Eubacterium siraeum, UniProt B0MS50, R295A;H300A;R849A;H854A)
T1 sequence: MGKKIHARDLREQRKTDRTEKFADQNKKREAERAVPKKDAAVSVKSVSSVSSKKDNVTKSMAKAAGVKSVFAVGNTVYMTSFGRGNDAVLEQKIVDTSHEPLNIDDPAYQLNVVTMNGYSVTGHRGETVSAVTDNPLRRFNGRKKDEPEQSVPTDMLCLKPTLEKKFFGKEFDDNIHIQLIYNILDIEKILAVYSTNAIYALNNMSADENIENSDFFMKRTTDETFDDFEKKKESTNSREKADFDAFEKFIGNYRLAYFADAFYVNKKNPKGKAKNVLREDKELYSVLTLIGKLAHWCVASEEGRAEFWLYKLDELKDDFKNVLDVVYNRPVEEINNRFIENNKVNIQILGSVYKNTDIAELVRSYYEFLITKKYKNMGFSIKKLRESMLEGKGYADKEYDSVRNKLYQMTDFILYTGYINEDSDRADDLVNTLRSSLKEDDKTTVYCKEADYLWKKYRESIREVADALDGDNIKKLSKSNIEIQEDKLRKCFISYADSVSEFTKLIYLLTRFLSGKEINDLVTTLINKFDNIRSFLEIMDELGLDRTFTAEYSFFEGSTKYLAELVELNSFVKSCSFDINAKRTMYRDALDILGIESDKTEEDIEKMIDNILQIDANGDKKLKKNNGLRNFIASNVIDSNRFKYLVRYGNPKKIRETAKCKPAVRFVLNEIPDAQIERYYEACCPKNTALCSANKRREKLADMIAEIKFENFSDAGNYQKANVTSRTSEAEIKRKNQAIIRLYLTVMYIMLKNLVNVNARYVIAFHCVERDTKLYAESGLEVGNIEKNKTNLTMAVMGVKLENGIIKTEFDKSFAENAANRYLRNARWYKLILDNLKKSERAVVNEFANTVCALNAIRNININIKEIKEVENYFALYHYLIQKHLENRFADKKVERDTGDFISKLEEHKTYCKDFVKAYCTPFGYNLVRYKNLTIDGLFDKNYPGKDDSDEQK
Assay: crRNA (strand 1, pre-loaded); Mg2+; 40 mM Tris-HCl pH 7.5, 150 mM NaCl, 6 mM MgCl2, 1 mM DTT, 0.1% Tween-20, 0.2 mg/ml BSA; 25 C; 10 min per concentration, then washed
Conditions: tags: His6-TwinStrep-SUMO cleaved; N-terminal SNAP kept (SNAP-Surface 488); label: 3' end held by stalled T7 RNA polymerase

Use the examples below as a reference point.
target 1 insA 3' of 21,insC 3' of 12 (mixed) RNA 1: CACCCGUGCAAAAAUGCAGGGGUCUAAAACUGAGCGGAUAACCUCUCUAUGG RNA 2: GGGAAUGGAUCCACAUCUACGAAUUCGUACCAAUAGAGAGGCUUAUCCGCUCACCGAGAUCGGAAGAGCACACGU: ~44 nM
target 1 MT 5'PFS GUA 3'PFS GCU (mixed) RNA 1: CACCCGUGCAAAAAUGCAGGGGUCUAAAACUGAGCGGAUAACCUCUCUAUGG RNA 2: GGGAAUGGAUCCACAUCUACGAAUUCGUACCAUAGAGAGGUUAUCCGCUCAGCUAGAUCGGAAGAGCACACGU: 4.18 nM
target 1 insC 3' of 5,insG 3' of 3 (mixed) RNA 1: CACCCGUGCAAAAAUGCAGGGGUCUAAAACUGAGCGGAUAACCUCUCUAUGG RNA 2: GGGAAUGGAUCCACAUCUACGAAUUCGUACCAUAGAGAGGUUAUCCGCCUGCACCGAGAUCGGAAGAGCACACGU: 24.9 nM

# next binder below
Query :: Please list Kd recorded for the binder target 2 MT 5'PFS CUU 3'PFS CAU (mixed) RNA 1: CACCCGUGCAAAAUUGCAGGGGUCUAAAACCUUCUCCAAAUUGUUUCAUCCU RNA 2: GGGAAUGGAUCCACAUCUACGAAUUCCUUAGGAUGAAACAAUUUGGAGAAGCAUAGAUCGGAAGAGCACACGU
Result :: 4.1 nM

Values were extracted from paper PMC10786891.
